Target: CHIP (Homo sapiens, UniProt Q9UNE7)
Construct: N-term truncated CHIP (also known as STUB1, Uniprot ID: Q9UNE7, residues 23-303); made in house; host or cells: E. coli BL21 CodonPlus
Sequence (Q9UNE7 23-303): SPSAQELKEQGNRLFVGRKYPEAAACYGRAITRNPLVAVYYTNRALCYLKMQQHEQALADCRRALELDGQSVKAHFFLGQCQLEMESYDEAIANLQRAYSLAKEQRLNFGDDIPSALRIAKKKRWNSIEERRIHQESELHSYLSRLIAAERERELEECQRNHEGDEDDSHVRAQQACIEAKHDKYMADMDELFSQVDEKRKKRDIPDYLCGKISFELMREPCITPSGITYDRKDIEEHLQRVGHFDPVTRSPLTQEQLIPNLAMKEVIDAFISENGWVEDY
Assay: Naive Library Presenter Screening (phage, NGS), CHIP
Format: binding
Settings: CHIP clusters (C83, C84); target concentration 30 nM
Numbered stars: 1 amine (or outer) side, 2 acyl side, 3 side chain; on linkers, the order of the positions; unused ones are H or OH. Bridge positions count the residues as written; N and C are the ends. Ends that are not written are not given here. Phenylene(1,4-NHCOCH2)2 = O=C(C[*:1])Nc1ccc(NC(=O)C[*:2])cc1
measurement name: interaction data at Target Concentration 30

For orientation, consider the following solved cases.
sequence string	result
DPAFWRCQFAAATCEHT (linker 7-14 via Phenylene(1,4-NHCOCH2)2 (inferred))	3
DPAEYACYHAASICNVD (linker 7-14 via Phenylene(1,4-NHCOCH2)2 (inferred))	0
DPAVRWCAAAAAICMVD (linker 7-14 via Phenylene(1,4-NHCOCH2)2 (inferred); not fully specified (C-terminus))	0
DPAFDACQFAAAMCDHQ (linker 7-14 via Phenylene(1,4-NHCOCH2)2 (inferred))	30
DPAQYNCYFAANICTVD (DPAQYNCYFAANICTVD-NH2; linker 7-14 via Phenylene(1,4-NHCOCH2)2 (inferred))	0
DPAFEVCQFAAATCSSN (linker 7-14 via Phenylene(1,4-NHCOCH2)2 (inferred))	0
DPANHICHYAAHICDVD (DPANHICHYAAHICDVD-NH2; linker 7-14 via Phenylene(1,4-NHCOCH2)2 (inferred))	0
DPAFWVCQYAAAMCQDV (linker 7-14 via Phenylene(1,4-NHCOCH2)2 (inferred))	3
DPALWNCQYAAVMCTQL (linker 7-14 via Phenylene(1,4-NHCOCH2)2 (inferred); not fully specified (C-terminus))	0
DPAFEYCQWAAATCQMD (linker 7-14 via Phenylene(1,4-NHCOCH2)2 (inferred))	12

Recall the recorded interaction data at Target Concentration 30 for DPASQWCQRAASICWID (DPASQWCQRAASICWID-NH2; linker 7-14 via Phenylene(1,4-NHCOCH2)2 (inferred)) with CHIP (Homo sapiens, UniProt Q9UNE7) and state it.
0

Now this one: DPAQDNCHYAAHICMVD (DPAQDNCHYAAHICMVD-NH2; linker 7-14 via Phenylene(1,4-NHCOCH2)2 (inferred))
0

Now this one: DPAFTRCQFAAAVCNFT (linker 7-14 via Phenylene(1,4-NHCOCH2)2 (inferred))
3

Now this one: DPAYDVCHFAAHICWID (linker 7-14 via Phenylene(1,4-NHCOCH2)2 (inferred))
0

Now this one: DPAMWHCQYAAIMCNAN (DPAMWHCQYAAIMCNAN-NH2; linker 7-14 via Phenylene(1,4-NHCOCH2)2 (inferred))
0

Now this one: DPAFERCQLAAAFCYDS (linker 7-14 via Phenylene(1,4-NHCOCH2)2 (inferred))
0

Now this one: DPAVHNCSQAASICDVD (linker 7-14 via Phenylene(1,4-NHCOCH2)2 (inferred); not fully specified (C-terminus))
0
